Assay: Oral bioavailability in Sprague-Dawley rat at 10 mg/kg measured up to 24 hrs by LC-MS analysis
Format: ADME, organism-based
Settings: in vivo
observation.type: bioavailability (%)
Just the number in %, nothing appended.

Worked cases, bioavailability given:
smiles.structure	value.unit	bioavailability
CCC(=O)Nc1ccc(NC(=S)NC(=O)c2ccc(C(C)(C)C)cc2)cc1	%	0.83
CC(C)(C)c1ccc(C(=O)NC(=S)Nc2ccc(O)cc2)cc1	%	1.21

Read the next record carefully.
Exercise: Given `CC(C)(C)c1ccc(C(=O)NC(=S)Nc2ccc(NC(=O)c3ccc(C(C)(C)C)cc3)cc2)cc1` , state its recorded bioavailability.
Key: 7.38
